Listed compounds paired with reported normalized growth
Method Summary: chemical genetic growth profiling, strain panel (AID 1159580);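 note: tested at 20 µM; growth read once vehicle control cultures reached saturation at 30 °C; 1 = growth at the plate median or of vehicle wells; lower values mean less growth of the strain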
Settings: S. cerevisiae deletion strains, growth OD, locus YHR079C, strain IRE1 (second series), stronger effect = lower value
In all, about 5,500 compounds went through this assay and about 2,000 (36%) were called active. Inconclusive results (about 18%) are left out. Some of the results follow.
Measured Parameter: normalized growth

[
  {
    "Query Smiles": "C=CCc1ccc2c(c1)OCO2",
    "Readout Value": 0.989
  },
  {
    "Query Smiles": "CC(C)(C)CC(C)(C)c1ccc(OCCOCC[N+](C)(C)Cc2ccccc2)cc1",
    "Readout Value": 0.991
  },
  {
    "Query Smiles": "C1CCc2nnnn2CC1",
    "Readout Value": 1.02
  },
  {
    "Query Smiles": "OC(CCN1CCCCC1)(c1ccccc1)c1ccccc1",
    "Readout Value": 1.01
  },
  {
    "Query Smiles": "c1ccc(CN(CC2=NCCN2)c2ccccc2)cc1",
    "Readout Value": 0.995
  }
]

----------
Method Summary: chemical genetic growth profiling, strain panel (AID 1159580);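 note: tested at 20 µM; growth read once vehicle control cultures reached saturation at 30 °C; 1 = growth at the plate median or of vehicle wells; lower values mean less growth of the strain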
Settings: S. cerevisiae deletion strains, growth OD, locus YPL240C, strain hsp82, stronger effect = lower value
Hit rate of the full screen: of about 5,500 compounds, about 2,000 (36%) were called active. Roughly 18% stayed inconclusive and do not appear here. The list shows a part of the results.
Field: label. Allowed values: 1 (normalized growth < 1) or -1 (normalized growth >= 1).

[
  {
    "Query Smiles": "N#Cc1c(Cl)c(Cl)c(Cl)c(C#N)c1Cl",
    "Classification": 1
  },
  {
    "Query Smiles": "COc1ccc(C[C@H]2NC[C@H](O)[C@H]2OC(C)=O)cc1",
    "Classification": 1
  },
  {
    "Query Smiles": "C[CH2][Hg][S]c1ccccc1C(=O)O",
    "Classification": 1
  },
  {
    "Query Smiles": "CC(=O)CC(=O)CCC(=O)O",
    "Classification": -1
  },
  {
    "Query Smiles": "COc1ccc(C(=O)c2ccccc2)c(O)c1",
    "Classification": 1
  },
  {
    "Query Smiles": "COc1ccc(C(=O)c2ccccc2O)c(O)c1",
    "Classification": 1
  }
]

----------
Method Summary: chemical genetic growth profiling, strain panel (AID 1159580);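 note: tested at 20 µM; growth read once vehicle control cultures reached saturation at 30 °C; 1 = growth at the plate median or of vehicle wells; lower values mean less growth of the strain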
Settings: S. cerevisiae deletion strains, growth OD, locus YLL041C, strain sdh2, stronger effect = lower value
The whole screen tested about 5,500 compounds, of which about 2,000 (36%) were called active. Not shown: some 18% with an inconclusive outcome. This is one part of the list.
Listing of entries alongside the reported normalized growth.

[
  {
    "Compound": "CNc1ccccc1C(=O)N1CCc2c([nH]c3ccccc23)C1=O",
    "normalized growth": 1
  },
  {
    "Compound": "COC(=O)COc1cc(Cl)c(Cl)cc1Cl",
    "normalized growth": 1
  },
  {
    "Compound": "NC[C@@H]1O[C@H](O[C@@H]2[C@@H](CO)OC(O[C@@H]3[C@@H](O)[C@H](N)C[C@H](N)[C@H]3OC3O[C@H](CN)[C@@H](O)[C@H](O)[C@H]3N)[C@@H]2O)[C@H](N)[C@@H](O)[C@@H]1O (stereo not given in full)",
    "normalized growth": 1.02
  },
  {
    "Compound": "COc1c2c(c(CC=C(C)C)c3oc(=O)c(-c4ccc(O)cc4)c(O)c13)OC(C)(C)C=C2",
    "normalized growth": 0.984
  },
  {
    "Compound": "CN=C(NC#N)NCCSCc1nc[nH]c1C",
    "normalized growth": 1
  },
  {
    "Compound": "O=C(O)c1ccccc1OP(=O)(O)O",
    "normalized growth": 0.992
  },
  {
    "Compound": "O=[N+]([O-])O[C@H]1CO[C@H]2[C@@H]1OC[C@H]2O[N+](=O)[O-]",
    "normalized growth": 0.998
  },
  {
    "Compound": "CC(=O)OCC(CCn1cnc2cnc(N)nc21)COC(C)=O",
    "normalized growth": 0.99
  },
  {
    "Compound": "COc1ccc2c(c1)OC[C@@H](Cc1ccc(OC)c(OC)c1)[C@H]2O",
    "normalized growth": 1
  },
  {
    "Compound": "COC(=O)[C@@H]1C(O)CC[C@H]2CN3CCc4c([nH]c5ccccc45)[C@@H]3C[C@@H]21 (stereo not given in full)",
    "normalized growth": 1.02
  }
]
